assay.summary: patients with anti-drug antibodies; higher = more immunogenic
Below, each entry is listed with its recorded patients with anti-drug antibodies.
Provide only the numeric value, understood in %.

Observe how each entry below is paired with its result.
INSERT INTO assay_data (protein, property_measured, result_number) VALUES
  ('unnamed (protein) chain 1: EVQLVESGGGLVQPGGSLRLSCAASGFTFSDYNMAWVRQAPGKGLEWVATITYEGRNTYYRDSVKGRFTISRDNAKNSLYLQMNSLRAEDTAVYYCASPPQYYEGSIYRLWFAHWGQGTLVTVSS chain 2: AIQLTQSPSSLSASVGDRVTITCRADESVRTLMHWYQQKPGKAPKLLIYLVSNSEIGVPDRFSGSGSGTDFRLTISSLQPEDFATYYCQQTWSDPWTFGQGTKVEIK', 'patients with anti-drug antibodies', 12.8),
  ('unnamed (protein) chain 1: EVQLVESGGGLVQPGGSLRLSCAASGYDFTHYGMNWVRQAPGKGLEWVGWINTYTGEPTYAADFKRRFTFSLDTSKSTAYLQMNSLRAEDTAVYYCAKYPYYYGTSHWYFDVWGQGTLVTVSS chain 2: DIQLTQSPSSLSASVGDRVTITCSASQDISNYLNWYQQKPGKAPKVLIYFTSSLHSGVPSRFSGSGSGTDFTLTISSLQPEDFATYYCQQYSTVPWTFGQGTKVEIK', 'patients with anti-drug antibodies', 3.5),
  ('unnamed (protein) chain 1: QVQLQESGPGLVKPSQTLSLTCTVSGGSISSGDYFWSWIRQLPGKGLEWIGHIHNSGTTYYNPSLKSRVTISVDTSKKQFSLRLSSVTAADTAVYYCARDRGGDYYYGMDVWGQGTTVTVSS chain 2: EIVLTQSPGTLSLSPGERATLSCRASQGISRSYLAWYQQKPGQAPSLLIYGASSRATGIPDRFSGSGSGTDFTLTISRLEPEDFAVYYCQQFGSSPWTFGQGTKVEIK', 'patients with anti-drug antibodies', 0),
  ('unnamed (protein) chain 1: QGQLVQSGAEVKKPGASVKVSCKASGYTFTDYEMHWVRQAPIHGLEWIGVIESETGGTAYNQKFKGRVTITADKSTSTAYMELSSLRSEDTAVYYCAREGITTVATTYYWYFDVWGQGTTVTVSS chain 2: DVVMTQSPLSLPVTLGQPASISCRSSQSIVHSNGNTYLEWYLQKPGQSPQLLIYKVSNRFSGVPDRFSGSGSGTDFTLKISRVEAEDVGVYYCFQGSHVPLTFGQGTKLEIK', 'patients with anti-drug antibodies', 1);

Specify measured patients with anti-drug antibodies for unnamed (protein) chain 1: QVQLVQSGAEVKKPGASVKVSCKASGHIFSNYWIQWVRQAPGQGLEWMGEILPGSGHTEYTENFKDRVTMTRDTSTSTVYMELSSLRSEDTAVYYCARYFFGSSPNWYFDVWGQGTLVTVSS chain 2: DIQMTQSPSSLSASVGDRVTITCGASENIYGALNWYQQKPGKAPKLLIYGATNLADGVPSRFSGSGSGTDFTLTISSLQPEDFATYYCQNVLNTPLTFGQGTKVEIK .
0.2
